Origin of measurements: patent US20230192896A1

# TGT: T1, FIXa-SM (FIXa+EGR-CMK) (human, UniProt P00740 47-191; P00740 227-461, EGR-CMK (L-Glu-Gly-Arg chloromethyl ketone) covalently bound to the active site)
# T1 construct: BLI antigen bought from Haematologic Technologies (HCIXA-EGR); also called FIXa with substrate mimic
# ASSAY_EXPLANATION: BLI; class meaning: paragraph 914
MEASURE: binding result

Examples from the recorded data:
BINDER: BIIB-9-1284 (antibody, V domains shown, IgG) VH: QVQLVQSGAEVKKPGASVKVSCKASGYTFTSYYMVWVRQAPGQGLEWMGIINPSGGSTSYAQKFQGRVTMTRDTSTSTVYMELSSLRSEDTAVYYCARVPTYRYSYLAFDIWGQGTMVTVSS VL: EIVLTQSPATLSVSPGERATLSCRASQSVGSNLAWYQQKPGQAPRLLIYGASTRATGIPARFSGSGSGTEFTLTISSLQSEDFAVYYCQQHNHLPITFGGGTKVEIK
binding result: binds
//
BINDER: BIIB-9-1287 (antibody, V domains shown, IgG) VH: QLQLQESGPGLVKPSETLSLTCTVSGGSISSSDYYWGWIRQPPGKGLEWIGSIYYSGSTYYNPSLKSRVTISVDTSKNQFSLKLSSVTAADTAVYYCARSPRHKVRGPNWFDPWGQGTLVTVSS VL: EIVLTQSPGTLSLSPGERATLSCRASQSVSSSYLAWYQQKPGQAPRLLIYGASSRATGIPDRFSGSGSGTDFTLTISRLEPEDFAVYYCQQYHLHPTFGGGTKVEIK
binding result: binds
//
BINDER: BIIB-9-569 (antibody, V domains shown, IgG) VH: QVQLVQSGAEVKKPGASVKVSCKASGYTFTSYYMHWVRQAPGQGLEWMGIINPSGGSTSYAQKFQGRVTMTRDTSTSTVYMELSSLRSEDTAVYYCARDGSGYSPYSFDPWGQGTLVTVSS VL: DIQMTQSPSSLSASVGDRVTITCQASQDISNYLNWYQQKPGKAPKLLIYDASNLATGVPSRFSGSGSGTDFTFTISSLQPEDIATYYCQQADDFPFTFGGGTKVEIK
binding result: binds
//
BINDER: BIIB-9-611 (antibody, V domains shown, IgG) VH: QVQLVQSGAEVKKPGASVKVSCKASGYTFTSYYMHWVRQAPGQGLEWMGIINPSGGSTSYAQKFQGRVTMTRDTSTSTVYMELSSLRSEDTAVYYCAREVISRVSYFDLWGRGTLVTVSS VL: EIVMTQSPATLSVSPGERATLSCRASQSVSSNLAWYQQKPGQAPRLLIYGASTRATGIPARFSGSGSGTEFTLTISSLQSEDFAVYYCQQDNIHPYTFGGGTKVEIK
binding result: binds

Answer with the recorded binding result for the binder listed here: BIIB-9-558 (antibody, V domains shown, IgG) VH: EVQLVESGGGLVKPGGSLRLSCAASGFTFSSYSMNWVRQAPGKGLEWVSSISSSSSYIYYADSVKGRFTISRDNAKNSLYLQMNSLRAEDTAVYYCARSYGYGYHDFDLWGRGTLVTVSS VL: DIQMTQSPSTLSASVGDRVTITCRASQSIGSWLAWYQQKPGKAPKLLIYKASSLESGVPSRFSGSGSGTEFTLTISSLQPDDFATYYCQQAGSYSFTFGGGTKVEIK binds
